# IC50 listing for each entry below
# tested-system: SARS-CoV-2 main protease (M^pro) (Severe acute respiratory syndrome coronavirus 2)
# method-description: biochemical
# test-parameters: 50 nM M^pro, […] substrate, pH 7.3, 15 min pre-incubation; read-out: FRET IC50
All answers are understood in nM, so give the number only.

Lookup: Name the recorded IC50 for O=C1C[C@H](Cn2sc3ccccc3c2=O)CN1 .
Found: 510

Lookup: Name the recorded IC50 for COC(=O)Cn1c(=O)c2ccccc2[s+]1[O-] (stereo not shown) .
Found: 2830

Lookup: Name the recorded IC50 for O=c1c2ccccc2sn1-c1ccccn1 .
Found: 220

---

# IC50 listing for each entry below
# tested-system: SARS-CoV-2 main protease (M^pro) (Severe acute respiratory syndrome coronavirus 2, UniProt P0DTD1)
# method-description: biochemical
# test-parameters: M^pro (0.3 µM) incubated 15 min with compound, TSAVLQ/SGFRK-NH2 peptide (4 µM), 10 min reaction; read-out: SPE-MS IC50
All answers are understood in µM, so give the number only.

See these solved cases before continuing.
>>> value_measured("O=c1c2ccccc2sn1CC1CCCCC1 [Compound 6]")
0.53
>>> value_measured("O=C1C[C@H](Cn2sc3ccccc3c2=O)CN1 [Compound 9]")
2.55

Shift focus to the following entry.
Lookup: Name the recorded IC50 for COC(=O)Cn1c(=O)c2ccccc2[s+]1[O-] (stereo not drawn) [Compound 12] .
Found: 20.1

---

# Apparent max. no. of reactions listing for each entry below
# tested-system: SARS-CoV-2 main protease (M^pro) (Severe acute respiratory syndrome coronavirus 2, UniProt P0DTD1)
# method-description: protein-observed mass spectrometry (POMS) under denaturing conditions, number of covalent reactions
# Assay type: binding
# test-parameters: 40 μM compound, 2 μM M^pro, 20 mM HEPES, pH 7.5, 50 mM NaCl; covalent reactions with M^pro
Form rule: numeric answer, no unit written next to it.

>>> value_measured("O=c1c2ccccc2sn1CC1CCCCC1 [Compound 6]")
6
>>> value_measured("O=c1c2ccccc2sn1-c1ccccn1 [Compound 8]")
6
>>> value_measured("O=c1c2cnccc2sn1-c1ccccc1 [Compound 3f]")
9

Lookup: Name the recorded Apparent max. no. of reactions for COCCn1sc2ccccc2c1=O [Compound 10] .
Found: 5

Lookup: Name the recorded Apparent max. no. of reactions for Cc1cccc2c(=O)n(-c3ccccc3)sc12 [Compound 3b] .
Found: 1

Lookup: Name the recorded Apparent max. no. of reactions for O=c1c2ccccc2sn1Cc1ccccc1 [Compound 5] .
Found: 6

---

# FRET pIC50 / apparent max. no. of reactions listing for each entry below
# tested-system: UniProtKB P0DTD1
# method-description: biochemical
# test-parameters: ratio of FRET pIC50 to number of reactions observed by MS
Form rule: numeric answer, no unit written next to it.

See these solved cases before continuing.
>>> value_measured("O=C1C[C@H](Cn2sc3ccccc3c2=O)CN1 [Compound 9]")
2.1
>>> value_measured("O=c1c2ccccc2sn1-c1ccccc1 [Compound 3a]")
0.6
>>> value_measured("CCCCCn1sc2ccccc2c1=O [Compound 7]")
1.3
>>> value_measured("O=c1c2cc(Br)ccc2sn1-c1ccccc1 [Compound 3e]")
3.8
>>> value_measured("CC(C)CCn1sc2ccc(Br)cc2c1=O [Compound 4d]")
3.3

Lookup: Name the recorded FRET pIC50 / apparent max. no. of reactions for COCCn1sc2ccccc2c1=O [Compound 10] .
Found: 1.2

Lookup: Name the recorded FRET pIC50 / apparent max. no. of reactions for CC(C)CCn1sc2ccccc2c1=O [Compound 4a] .
Found: 1.1

Lookup: Name the recorded FRET pIC50 / apparent max. no. of reactions for O=c1c2ccccc2sn1CC1CCCCC1 [Compound 6] .
Found: 1.0

Lookup: Name the recorded FRET pIC50 / apparent max. no. of reactions for O=c1[nH]sc2ccccc12 [Compound 2] .
Found: 1.0

Lookup: Name the recorded FRET pIC50 / apparent max. no. of reactions for O=c1c2ccccc2sn1-c1ccccn1 [Compound 8] .
Found: 1.1
